A collection of molecules and their measured composite z-score
Experiment: binders of probe aFGF2 on microarray, primary screen, stem cell growth factor project, biochemical, small-molecule microarray, fluorescence 635/667 (AID 1067);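 further: measures binding of biotinylated aFGF2 protein to printed compounds on slides; z-score merges feature fluorescence and signal-to-noise across triplicate slides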
Settings: higher = more signal
The answer should be a number; do not append a unit.

Below, 5 molecules whose answers are already recorded.
molecule: COCCOC(=O)N1C(=O)[C@@]2(c3cc(C#CC4=CCCCC4)ccc31)[C@H](C(=O)N1CCCCCCC1)[C@H]1C(=O)O[C@H](c3ccccc3)[C@H](c3ccccc3)N1[C@@H]2c1ccc(O)cc1
composite z-score: -0.0226

molecule: Cc1cc(C)c(C(O)C2C=CC3C(=O)NC(=O)C3N2Nc2ccc(Cl)cc2Cl)c(C)c1 (stereo unspecified)
composite z-score: 0.059

molecule: [N-]=[N+]=Nc1ccccc1[C@H]1OC(c2ccc(OCCCO)cc2)=N[C@@]1(CCS(=O)(=O)c1ccccc1)C(=O)NCCN1CCOCC1
composite z-score: 0.115

molecule: COCCCNC(=O)[C@]1(CCS(=O)(=O)c2ccccc2)N=C(c2ccc(OCCCO)cc2)O[C@@H]1c1ccccc1CN=[N+]=[N-]
composite z-score: 0.418

molecule: C=CCOC(=O)[C@H]1[C@@H]2C(=O)O[C@@H](c3ccccc3)[C@@H](c3ccccc3)N2[C@@H](c2ccc(OCCOC(=O)[C@@H]3C[C@@H]4C(=O)N[C@@H](CCCCN(C)C)C(=O)N4[C@@H]3c3ccc(O)cc3)cc2)[C@]12C(=O)Nc1ccccc12
composite z-score: -0.113

# evaluate next
stdin: Which measured composite z-score value corresponds to CCCNC(=O)[C@@H]1c2ccccc2C(=O)N(C(C)C)[C@H]1c1ccc(CO)cc1 ?
stdout: -0.112

Source listed as PubChem BioAssay.
